# Lookup of reported IC50 keyed by entry
# assayed target: Met kinase domain (GST fusion protein) (Homo sapiens, UniProt P08581)
# Construct: Purified GST fusion protein containing the Met kinase domain
# assay summary: Met transphosphorylation assay (ELISA, poly(glu-tyr) substrate)
# Format: biochemical
# condition notes: plain numbers in column Met IC50 (μM) of Table 2; read-out: Met IC50
Number only, in µM; omit the unit.

compound	IC50, µM
CC(Oc1cc(-c2cccc(C(=O)N3CCN(C)CC3)c2)cnc1N)c1c(Cl)cccc1Cl (centres unmarked)	0.058
CCN(CC)CC(=O)NCC#Cc1cnc(N)c(OC(C)c2c(Cl)ccc(F)c2Cl)c1 (centres unmarked)	0.013
CC(Oc1cc(C#CCNC(=O)NCCCN2CCCC2)cnc1N)c1c(Cl)ccc(F)c1Cl (centres unmarked)	0.062
CC(Oc1cc(-c2ccc(C(=O)N3CC[C@@H](N)C3)cc2)cnc1N)c1c(Cl)cccc1Cl (some centres unmarked)	0.049
CC(=O)N1CCN(CCNC(=O)c2ccc(-c3cnc(N)c(OC(C)c4c(Cl)cccc4Cl)c3)cc2)CC1 (centres unmarked)	0.062

Name the reported IC50 value associated with the compound CC(Oc1cc(-c2ccc(NC(=O)NCCN3CCCC3)cc2)cnc1N)c1c(F)ccc(F)c1Cl (centres unmarked)
0.11

Entry CC(Oc1cc(-c2cccnc2)cnc1N)c1c(F)ccc(F)c1Cl (centres unmarked) please
0.0777

---

# assayed target: Met kinase domain (GST fusion protein) (Homo sapiens, UniProt P08581)
# Construct: Purified GST fusion protein containing the Met kinase domain
# assay summary: Met transphosphorylation assay (ELISA, poly(glu-tyr) substrate)
# Format: biochemical
# condition notes: read-out: Met IC50
# Lookup of reported IC50 keyed by entry
Number only, in nM; omit the unit.

Sample records with IC50:
compound	assayed target	IC50 (nM)
COc1ccc(COc2cc(-c3ccccc3)cnc2N)cc1F	Met kinase domain (GST fusion protein) (Homo sapiens, UniProt P08581)	15000
CC(Oc1nc(-c2ccc[nH]2)cnc1N)c1c(Cl)ccc(F)c1Cl (stereo not drawn)	Met kinase domain (GST fusion protein) (Homo sapiens, UniProt P08581)	220
CC(Oc1nc(-c2cccc(C(=O)N3C[C@@H](C)N[C@@H](C)C3)c2)cnc1N)c1c(Cl)cccc1Cl (stereo partly drawn)	Met kinase domain (GST fusion protein) (Homo sapiens, UniProt P08581)	360

Name the reported IC50 value associated with the compound Nc1ncc(-c2ccc(C(=O)NCCN3CCOCC3)cc2)cc1OCc1ccccc1Cl
8900

Entry C[C@@H]1CN(C(=O)c2ccc(-c3cnc(N)c(OCc4c(F)ccc(F)c4Cl)n3)s2)C[C@H](C)N1 please
550

Entry CC(Oc1nc(-c2cccc(C(=O)N3CCC[C@H]3CN3CCCC3)c2)cnc1N)c1c(Cl)cccc1Cl (stereo partly drawn) please
180

Entry CC(Oc1nc(-c2ccc(C(=O)N3CC[C@@H](N)C3)cc2)cnc1N)c1c(F)ccc(F)c1Cl (stereo partly drawn) please
78

Entry Nc1ncc(-c2ccc3[nH]ccc3c2)cc1OCc1c(Cl)cccc1Cl please
4300

Entry Nc1ncc(-c2ccc(C(=O)N3CCC(N4CCCC4)CC3)s2)nc1OCc1c(F)ccc(F)c1Cl please
510

Entry CC(C)(C)c1ccc(COc2cc(-c3ccc(O)cc3)cnc2N)cc1 please
4000

Entry CC(=O)N1CCN(CCNC(=O)c2ccc(-c3cnc(N)c(OCc4c(F)ccc(F)c4Cl)n3)cc2)CC1 please
1350

Entry Nc1ncc(-c2ccc(C(=O)NCCCN3CCCC3)cc2)nc1OCc1c(F)ccc(F)c1Cl please
580

Entry CC(Oc1nc(-c2cccc(C(=O)NCCN3CCOCC3)c2)cnc1N)c1c(Cl)cccc1Cl (stereo not drawn) please
480

---

# Lookup of reported IC50 keyed by entry
# assayed target: Met kinase domain (GST fusion protein) (Homo sapiens)
# Construct: Purified GST fusion protein containing the Met kinase domain
# assay summary: Met transphosphorylation assay (ELISA, poly(glu-tyr) substrate);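 note: Cell-free ELISA with plate-bound poly(Glu:Tyr 4:1) phosphorylated by GST-fused Met kinase domain plus ATP and Mn2+, phosphotyrosine detected by anti-phosphotyrosine antibody with HRP and ABTS read-out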
# Assay type: biochemical
# condition notes: Table 2; read-out: Met IC50
Hey, just the number and the unit after it is fine.

Sample records with IC50:
compound	result value
Nc1ncc(-c2ccc(C(=O)N3CC[C@H](N)C3)cc2)cc1OCc1ccccc1C(F)(F)F	790 nM
CC(Oc1cc(-c2ccc(C(=O)N3CC[C@H](N)C3)cc2)cnc1N)c1c(F)ccc(F)c1Cl (stereo partly shown)	75 nM
Nc1ncc(-c2ccc(C(=O)N3CC[C@@H](N)C3)cc2)cc1OCc1c(F)ccc(F)c1Cl	53 nM
Nc1ncc(-c2cccc(C(=O)NCCN3CCCC3)c2)cc1OCc1c(F)ccc(F)c1Cl	260 nM
CN1CCN(C(=O)c2ccc(-c3cnc(N)c(OCc4ccc(F)cc4Cl)c3)cc2)CC1	5000 nM

Identify the measured IC50 of CC(Oc1cc(-c2ccc(C(=O)N3CC[C@@H](O)C3)cc2)cnc1N)c1c(Cl)ccc(F)c1Cl (stereo partly shown) for Met kinase domain (GST fusion protein) (Homo sapiens).
22 nM

Entry Nc1ncc(-c2cccc(NS(=O)(=O)CCNC3CC3)c2)cc1OCc1c(F)ccc(F)c1Cl please
900 nM

---

# assayed target: HGFR (Homo sapiens)
# Construct: purchased Upstate 14-526
# assay summary: HGFR continuous-coupled spectrophotometric assay
# Assay type: biochemical
# condition notes: at 1 μM; Table 8, library procedure 43; read-out: % Inhibition (percent c-MET inhibition)
Would you mind labelling by inhibition at 1 µM? At or over 20% is 1, under is 0.

compound	discrete label
CC1CN(C(=O)c2ccc(-c3cnc(N)c(OCc4ccc(C(=O)NC5CCN(Cc6ccccc6)C5)cc4)c3)cc2)CC(C)N1 (centres unmarked)	0
CC1CN(C(=O)c2ccc(-c3cnc(N)c(OCc4ccc(OC(F)(F)F)cc4)c3)cc2)CC(C)N1 (centres unmarked)	1
CC1CN(C(=O)c2ccc(-c3cnc(N)c(OCc4cc(F)ccc4F)c3)cc2)CC(C)N1 (centres unmarked)	1
Cc1cc(COc2cc(-c3ccc(C(=O)N4CC(C)NC(C)C4)cc3)cnc2N)ccc1F (centres unmarked)	0
CC1CN(C(=O)c2ccc(-c3cnc(N)c(OCc4cccc(OC(F)(F)F)c4)c3)cc2)CC(C)N1 (centres unmarked)	0

In plain terms: is recorded inhibition at 1 µM at least 20% for CC1CN(C(=O)c2ccc(-c3cnc(N)c(OCc4ccc(S(=O)(=O)Nc5ccc(F)cc5)cc4)c3)cc2)CC(C)N1 (centres unmarked) ?
0

Entry CC1CN(C(=O)c2ccc(-c3cnc(N)c(OCc4cccc(C(=O)NC5CCN(Cc6ccccc6)C5)c4)c3)cc2)CC(C)N1 (centres unmarked) please
0

---

# assayed target: HGFR (Homo sapiens, UniProt P08581)
# Construct: purchased Upstate 14-526
# Sequence (P08581 974-1390 limits assumed): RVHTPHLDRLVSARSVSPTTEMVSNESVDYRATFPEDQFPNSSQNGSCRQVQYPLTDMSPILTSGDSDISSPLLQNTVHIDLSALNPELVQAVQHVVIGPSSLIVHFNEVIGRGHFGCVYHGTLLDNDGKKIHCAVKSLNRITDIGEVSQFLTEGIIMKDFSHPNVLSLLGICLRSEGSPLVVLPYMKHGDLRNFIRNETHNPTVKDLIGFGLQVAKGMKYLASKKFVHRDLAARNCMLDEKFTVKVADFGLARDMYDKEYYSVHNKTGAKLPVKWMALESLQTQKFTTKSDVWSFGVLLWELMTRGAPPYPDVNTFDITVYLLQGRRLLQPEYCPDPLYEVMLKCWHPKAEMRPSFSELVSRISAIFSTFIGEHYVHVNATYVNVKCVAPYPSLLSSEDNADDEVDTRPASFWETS
# assay summary: HGFR continuous-coupled spectrophotometric assay
# Type: biochemical
# condition notes: at 1 μM; Table 8, library procedure 43; read-out: % Inhibition (percent c-MET inhibition)
Would you mind labelling by inhibition at 1 µM? At or over 20% is 1, under is -1.

compound	discrete label
CC1CN(C(=O)c2ccc(-c3cnc(N)c(OCc4nccn4Cc4ccccc4)c3)cc2)CC(C)N1 (centres unmarked)	-1
CC1CN(C(=O)c2ccc(-c3cnc(N)c(OCc4nc(CS(=O)(=O)c5ccccn5)no4)c3)cc2)CC(C)N1 (centres unmarked)	-1
CC1CN(C(=O)c2ccc(-c3cnc(N)c(OCc4cc(Cl)ccc4Cl)c3)cc2)CC(C)N1 (centres unmarked)	1

In plain terms: is recorded inhibition at 1 µM at least 20% for CC1CN(C(=O)c2ccc(-c3cnc(N)c(OCc4cc(C(F)(F)F)ccc4Cl)c3)cc2)CC(C)N1 (centres unmarked) ?
1

Entry CC1CN(C(=O)c2ccc(-c3cnc(N)c(OCc4ncc(C(F)(F)F)cc4Cl)c3)cc2)CC(C)N1 (centres unmarked) please
-1

Entry CC1CN(C(=O)c2ccc(-c3cnc(N)c(OCc4ccc(C(=O)NCCc5ccccn5)cc4)c3)cc2)CC(C)N1 (centres unmarked) please
-1

Entry CC1CN(C(=O)c2ccc(-c3cnc(N)c(OCc4cccc(F)c4F)c3)cc2)CC(C)N1 (centres unmarked) please
-1

Entry CC1CN(C(=O)c2ccc(-c3cnc(N)c(OCc4nsc(Cl)n4)c3)cc2)CC(C)N1 (centres unmarked) please
-1

Entry CC1CN(C(=O)c2ccc(-c3cnc(N)c(OCc4cccc(Cl)c4F)c3)cc2)CC(C)N1 (centres unmarked) please
1

Entry CC1CN(C(=O)c2ccc(-c3cnc(N)c(OCc4ccc(C#N)cc4)c3)cc2)CC(C)N1 (centres unmarked) please
-1

Entry CC1CN(C(=O)c2ccc(-c3cnc(N)c(OCc4cc(F)c(F)c(F)c4)c3)cc2)CC(C)N1 (centres unmarked) please
-1

---

# assayed target: HGFR (Homo sapiens)
# Construct: purchased Upstate 14-526
# assay summary: HGFR continuous-coupled spectrophotometric assay
# Format: biochemical
# condition notes: Table 3, column 'Ki (μM) or I (%)': cells without % sign; read-out: Ki
reported metric: Ki (µM)
Number only, in µM; omit the unit.

compound	unit of measurement	Ki
CC(Oc1cc(-c2ccc(C(=O)N3CCCN(C)CC3)cc2)cnc1N)c1c(Cl)ccc(F)c1Cl (stereo not shown) [Example I-603]	µM	0.0095
CC(Oc1cc(-c2cncc(Br)c2)cnc1N)c1c(Cl)ccc(F)c1Cl (stereo not shown) [Example I-644]	µM	0.196
CC(Oc1cc(-c2ccc(N(C)C)cc2)cnc1N)c1c(Cl)ccc(F)c1Cl (stereo not shown) [Example I-645]	µM	0.157

Identify the measured Ki of CC(Oc1cc(-c2ccc(C(=O)N3CCCNCC3)cc2)cnc1N)c1c(Cl)ccc(F)c1Cl (stereo not shown) [Example I-604] for HGFR (Homo sapiens).
0.031
